B1: Azoarcus group I ribozyme (parent)
chain: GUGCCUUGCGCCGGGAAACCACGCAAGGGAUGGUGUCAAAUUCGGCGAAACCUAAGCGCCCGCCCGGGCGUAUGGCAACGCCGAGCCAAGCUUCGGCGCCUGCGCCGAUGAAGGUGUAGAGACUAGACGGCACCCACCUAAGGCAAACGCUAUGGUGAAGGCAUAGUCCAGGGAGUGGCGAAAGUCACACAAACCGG

- Variants of: B1
- Test name: reverse-splicing fitness (ratio to wild type); higher = more active; in vitro selection; Mg2+ level not given
Listing: reverse-splicing fitness of selected variants

# Mutant designation, reverse-splicing fitness
rows = [
    ("A111C A120U A145G C150G U176A", 0.0151),
    ("C82U A111U A120C A145G C169A U176C", 0.0232),
    ("C82G A120G A145G C150U C169A U176G", 0.00521),
    ("C82U A111U A120U A145U C150G C169U U176C", 0.00272),
    ("A111G A120C A145G U176C", 0.44),
    ("C82G A111U A120U C150A U176G", 0.00383),
    ("C82A A111G A145C C169G U176A", 0.0278),
    ("C82U A111U A120C A145G C150U C169G U176G", 0.00514),
    ("A111G A120U C150G C169U", 0.0103),
    ("C82U A120G C150A C169G", 0.0102),
    ("C82A A111U A120C C150U U176C", 0.022),
    ("C82U A111U A120G A145C C150A C169U U176C", 0.00977),
    ("A111C A120U A145C C150U C169U U176C", 0.00414),
    ("C82G A111C U176C", 0.139),
    ("C82U A111U A120C", 0.0288),
    ("C82G A120C C150G C169A U176A", 0.01),
    ("A145G C150U C169U U176A", 0.113),
    ("A120G A145G U176G", 0.0157),
    ("C82A A111U A120C A145C C150U C169A", 0.00907),
    ("A120C C169A U176G", 0.00454),
]
